Provenance of the data: ChEMBL document CHEMBL2407027

- ASSAY TARGET: Tissue alpha-L-fucosidase (Bos taurus, UniProt Q2KIM0)
- Sequence (Q2KIM0 whole entry): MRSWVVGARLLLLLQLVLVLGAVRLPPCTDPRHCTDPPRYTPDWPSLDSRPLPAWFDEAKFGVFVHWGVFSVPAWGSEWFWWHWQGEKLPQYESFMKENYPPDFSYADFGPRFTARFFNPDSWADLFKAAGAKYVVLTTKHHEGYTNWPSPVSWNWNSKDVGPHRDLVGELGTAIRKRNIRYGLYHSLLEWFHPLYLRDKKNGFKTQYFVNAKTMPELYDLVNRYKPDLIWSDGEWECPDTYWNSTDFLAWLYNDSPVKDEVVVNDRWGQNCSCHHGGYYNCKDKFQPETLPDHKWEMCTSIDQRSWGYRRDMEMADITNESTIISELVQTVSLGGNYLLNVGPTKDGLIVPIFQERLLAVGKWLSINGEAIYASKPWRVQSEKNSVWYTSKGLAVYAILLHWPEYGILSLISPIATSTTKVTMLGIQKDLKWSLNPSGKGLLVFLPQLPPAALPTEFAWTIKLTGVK
PROPERTY NAME: pIC50
For clarity, pIC50 is expressed as the negative log10 of concentration in mol/L.

# pIC50 lookup, item OC[C@H]1NC[C@@H](O)[C@H](O)[C@@H]1O 3.71

* * *

- ASSAY TARGET: Alpha-glucosidase (Aspergillus niger)
- Sequence (P56526 whole entry): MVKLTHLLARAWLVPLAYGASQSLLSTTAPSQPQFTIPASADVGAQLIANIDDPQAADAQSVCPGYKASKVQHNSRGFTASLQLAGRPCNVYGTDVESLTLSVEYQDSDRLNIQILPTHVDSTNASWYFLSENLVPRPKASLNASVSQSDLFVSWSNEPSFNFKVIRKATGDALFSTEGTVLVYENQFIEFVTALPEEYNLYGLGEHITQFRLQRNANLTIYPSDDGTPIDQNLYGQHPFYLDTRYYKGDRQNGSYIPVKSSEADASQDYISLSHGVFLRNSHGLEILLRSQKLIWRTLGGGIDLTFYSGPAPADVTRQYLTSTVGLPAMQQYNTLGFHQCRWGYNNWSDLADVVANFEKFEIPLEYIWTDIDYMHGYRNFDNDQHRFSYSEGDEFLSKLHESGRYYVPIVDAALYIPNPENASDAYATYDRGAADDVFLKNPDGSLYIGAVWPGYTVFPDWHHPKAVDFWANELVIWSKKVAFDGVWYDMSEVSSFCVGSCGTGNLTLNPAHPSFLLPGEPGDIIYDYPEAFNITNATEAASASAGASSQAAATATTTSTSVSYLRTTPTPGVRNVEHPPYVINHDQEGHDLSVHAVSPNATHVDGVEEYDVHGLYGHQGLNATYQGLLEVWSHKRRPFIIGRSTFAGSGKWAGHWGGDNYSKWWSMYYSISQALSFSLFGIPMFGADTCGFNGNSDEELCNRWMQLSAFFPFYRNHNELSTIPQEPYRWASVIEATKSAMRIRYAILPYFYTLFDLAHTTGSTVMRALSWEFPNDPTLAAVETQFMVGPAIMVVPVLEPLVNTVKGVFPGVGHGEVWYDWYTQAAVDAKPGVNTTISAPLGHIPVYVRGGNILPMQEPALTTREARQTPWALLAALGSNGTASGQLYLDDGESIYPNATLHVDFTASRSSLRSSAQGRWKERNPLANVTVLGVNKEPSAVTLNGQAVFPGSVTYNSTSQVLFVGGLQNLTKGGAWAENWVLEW
PROPERTY NAME: IC50 (µM)
Your answer should be a plain number; it is taken to be in µM.

For the molecule OC[C@H](O)[C@@H]1NC[C@@H]1O , what IC50 is on record? 39

Any idea what its IC50 is? The molecule is O[C@H]1CCCN2C[C@H](O)[C@H]12 307
